Tested on: Canis familiaris
Assay: Percent change in mean arterial blood pressure in anesthetized dog; further: test concentration or dose not given here
Type: functional, Canis lupus familiaris
Reported Change values follow for various compounds
Reply with a number, then the unit it belongs to.

COc1ccc(-c2nc3c[nH]cnc-3n2)c(OC)c1 | -15%

Note Change for the compound shown: COc1cc([S+](C)[O-])ccc1-c1nc2c[nH]cnc-2n1 (stereo not given)
14%

Note Change for the compound shown: `COc1ccc(-c2nc3cc[nH]cc-3n2)cc1OC`
-9%

Note Change for the compound shown: `CSc1ccc(-c2nc3ccc[nH]c-3n2)cc1`
-7%

* * *

Organism: Felis catus
Experiment: Response ratio = (percent increase to drug)/(percent increase to 10 E-4 M isoproterenol)
Format: functional
Field: label. Allowed values: yes (1) (Response ratio < 1) or no (0) (Response ratio >= 1).

Some entries whose results are on file:
COc1cc(Cl)ccc1-c1nc2cc[nH]cc-2n1 | yes (1)
COc1ccc(-c2nc3cc[nH]cc-3n2)cc1OC | no (0)
COc1ccc(-c2nc3cc[nH]cc-3n2)c(C)c1 | yes (1)
COc1ccc(-c2nc3c[nH]cnc-3n2)c(OC)c1 | no (0)
COc1cccc(OC)c1-c1nc2cc[nH]cc-2n1 | no (0)
CCOc1cc(SC)ccc1-c1nc2cc[nH]cc-2n1 | yes (1)

For `COc1c(C)cc(-c2nc3cc[nH]cc-3n2)cc1C` , is the recorded Response ratio below the cut-off of 1?
no (0)

For `COc1cc(N(C)C)ccc1-c1nc2cc[nH]cc-2n1` , is the recorded Response ratio below the cut-off of 1?
yes (1)

For `Clc1cc(Cl)cc(-c2nc3cc[nH]cc-3n2)c1` , is the recorded Response ratio below the cut-off of 1?
yes (1)

For `COc1ccc(-c2nc3cc[nH]cc-3n2)c(OCCCSC)c1` , is the recorded Response ratio below the cut-off of 1?
yes (1)

For `CCSc1ccc(-c2nc3cc[nH]cc-3n2)c(OC)c1` , is the recorded Response ratio below the cut-off of 1?
no (0)

For `CCSCCOc1cc(OC)ccc1-c1nc2cc[nH]cc-2n1` , is the recorded Response ratio below the cut-off of 1?
yes (1)
